- System: NCI-H196 (lung cancer)
- ASSAY PROTOCOL: ATP level assay (CellTiter-Glo), percent of control
- Type: cell-based
- SETTINGS: compound 100 uM + 2DG (about 10-20 mM), two hour incubation

SMILES NOTATION	POC (percent of control) NCI-H196
Cc1ccc(S(=O)(=O)NCc2cnccn2)cc1	99.2% of control
Cc1cccc2c(CNS(=O)(=O)c3ccc(Cl)cc3)c[nH]c12	40.4% of control
O=S(=O)(NCc1c[nH]c2ccccc12)c1ccc(C(F)(F)F)cc1	54.6% of control
COc1ncccc1CNS(=O)(=O)c1ccccc1	127.4% of control
COc1ccc(S(=O)(=O)NCc2c[nH]c3ccccc23)cc1	83.5% of control
Cc1ccc(S(=O)(=O)NCc2c[nH]c3cccc(Br)c23)cc1	4.2% of control
O=S(=O)(NCc1c[nH]c2ccccc12)c1ccc(Cl)cc1	22.9% of control
O=S(=O)(NCc1cscn1)c1ccc(Cl)cc1	108.3% of control
Cc1ccc(S(=O)(=O)NCc2coc(C)n2)cc1	107.4% of control
COc1ncccc1CNS(=O)(=O)c1ccc(C)cc1	117% of control
CS(=O)(=O)NCc1c[nH]c2ccccc12	91.3% of control
O=S(=O)(NCc1c[nH]c2ccccc12)c1ccccc1	55% of control
Cc1cccc2[nH]cc(CNS(=O)(=O)c3ccc(Cl)cc3)c12	18.7% of control
Cc1ccc(S(=O)(=O)NCc2nn(C)c3ccccc23)cc1	99.2% of control
Cc1cccc2[nH]cc(CNS(=O)(=O)c3ccccc3)c12	70.1% of control
Cc1ccc(S(=O)(=O)NCc2c[nH]c3ccccc23)cc1	68.8% of control
Cc1ccc(S(=O)(=O)NCc2nccs2)cc1	107.3% of control
Cn1cc(CNS(=O)(=O)c2ccc(Cl)cc2)c2ccccc21	51.3% of control
Cc1ccc(S(=O)(=O)NCc2ccc3c(cnn3C)c2)cc1	86.1% of control
Cc1ccc(S(=O)(=O)NCc2cscn2)cc1	103.8% of control
O=S(=O)(NCc1cncnc1)c1ccc(Cl)cc1	107.3% of control
